target: Carbonic anhydrase 1 (Homo sapiens); assay: Inhibition of recombinant human CA1 assessed as inhibition constant preincubated for 15 mins by phenol red dye based stopped-flow CO2 hydration assay
Sequence (P00915 whole entry): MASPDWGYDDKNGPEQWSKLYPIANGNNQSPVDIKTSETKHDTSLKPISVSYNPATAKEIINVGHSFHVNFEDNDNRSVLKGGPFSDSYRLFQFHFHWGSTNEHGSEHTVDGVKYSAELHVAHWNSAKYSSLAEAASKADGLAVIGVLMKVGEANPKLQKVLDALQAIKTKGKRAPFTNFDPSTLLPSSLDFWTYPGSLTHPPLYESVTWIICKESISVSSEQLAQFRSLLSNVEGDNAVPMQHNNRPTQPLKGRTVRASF
pKi: −log10 of the molar value.
METRIC_NAME: pKi

Cc1cc(-c2ccc(S(N)(=O)=O)s2)cnc1-c1cccc2ncccc12 7.23

[1] NS(=O)(=O)c1ccc(-c2ccc(-c3cccc4ccccc34)cc2)cc1
[2] Cc1cc(-c2ccc(S(N)(=O)=O)s2)ccc1-c1cccc2ccccc12
Endpoint returns the identifier whose pKi is numerically larger, either 1 or 2 . Pick one and reply with its label. 2

[P] Cc1cc(-c2ccc(S(N)(=O)=O)s2)cnc1-c1cccc2ccccc12
[Q] Cc1cc(-c2ccc(S(N)(=O)=O)s2)cnc1-c1ccnc2ccccc12
[R] Cc1cc(-c2cccc(S(N)(=O)=O)c2)cnc1-c1ccnc2ccccc12
Ordering: ascending pKi. Answer by writing out the labels in the requested order. R, P, Q

[1] NS(=O)(=O)c1ccc(-c2ccc(-c3ccnc4ccccc34)cn2)s1
[2] Cc1cc(-c2cccc(S(N)(=O)=O)c2)ccc1-c1cccc2ccccc12
Consider entries 1 and 2 . Which has the numerically lower pKi? Pick one and reply with its label. 2
